# Assay info: recombinant UMI read abundance after kanamycin selection (control-corrected) (log10(CPM+1)); higher = more efficient recombination; extreme values may be limits of the assay; sequences stand for … in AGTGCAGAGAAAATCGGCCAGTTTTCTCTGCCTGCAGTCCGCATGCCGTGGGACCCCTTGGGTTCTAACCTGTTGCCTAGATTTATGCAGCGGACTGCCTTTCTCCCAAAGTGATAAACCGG…AGGTTGGTTTCACT; site = the 11-nt donor
Threshold rule: recombinant UMI read abundance (log10) greater than or equal to 0.01 is MET; below that, NOT MET.

[[record]]
sequence_record = "ATACGAACATGGACCGGTTTTCCCGGTAATCCGTATTTGTC (site ACACGAACTGA)"
discrete_label = "NOT MET"

[[record]]
sequence_record = "TGTCTTCCATGGACCGGTTTTCCCGGTAATCCGTATTTGTC (site TGTCTTCCTGA)"
discrete_label = "NOT MET"

[[record]]
sequence_record = "GGGTTCCCATGGACCGGTTTTCCCGGTAATCCGTATTTGTG (site CGGTTCCCTCA)"
discrete_label = "MET"

[[record]]
sequence_record = "ACTATTGCATGGACCGGTTTTCCCGGTAATCCGTATTTGGT (site ACTACTGCTAC)"
discrete_label = "MET"

[[record]]
sequence_record = "GCTGCTGCATGGACCGGTTTTCCCGGTAATCCGTATTTGCC (site GCTTCTGCTGG)"
discrete_label = "NOT MET"

[[record]]
sequence_record = "CCGTTACCATGGACCGGTTTTCCCGGTAATCCGTATTTGTG (site CCGTTACCTCA)"
discrete_label = "MET"

[[record]]
sequence_record = "CGCCGTGCATGGACCGGTTTTCCCGGTAATCCGTATTTGCT (site CGCCGTGCTAG)"
discrete_label = "MET"

[[record]]
sequence_record = "TGCCTCGCATGGACCGGTTTTCCCGGTAATCCGTATTTGGG (site TGCCTCGCTCC)"
discrete_label = "MET"

[[record]]
sequence_record = "GTATGCCCATGGACCGGTTTTCCCGGTAATCCGTATTTGTA (site GTATGCCCTTA)"
discrete_label = "MET"


---

# Assay info: recombinant UMI read abundance after kanamycin selection (control-corrected) (log10(CPM+1)); higher = more efficient recombination; extreme values may be limits of the assay; sequences stand for … in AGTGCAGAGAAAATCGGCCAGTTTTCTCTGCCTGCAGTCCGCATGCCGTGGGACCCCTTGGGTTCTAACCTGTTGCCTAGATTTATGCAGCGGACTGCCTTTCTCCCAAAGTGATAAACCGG…AGGTTGGTTTCACT; site = the 11-nt donor
Threshold rule: recombinant UMI read abundance (log10) greater than or equal to 0.008 is Criterion met; below that, Criterion not met.

[[record]]
sequence_record = "CAAGTGCCATGGACCGGTTTTCCCGGTAATCCGTATTTGTG (site CAAGCGCCTCA)"
discrete_label = "Criterion met"

[[record]]
sequence_record = "GGTCCAACATGGACCGGTTTTCCCGGTAATCCGTATTTGTA (site GGTCCACCTTA)"
discrete_label = "Criterion met"

[[record]]
sequence_record = "GGTGACTCATGGACCGGTTTTCCCGGTAATCCGTATTTGAC (site GGTGACTCTGT)"
discrete_label = "Criterion met"

[[record]]
sequence_record = "ATGTATACATGGACCGGTTTTCCCGGTAATCCGTATTTGAC (site ATGTATACTGT)"
discrete_label = "Criterion met"

[[record]]
sequence_record = "TAGAATACATGGACCGGTTTTCCCGGTAATCCGTATTTGCA (site TAGAATGCTTG)"
discrete_label = "Criterion not met"

[[record]]
sequence_record = "CGATGTGCATGGACCGGTTTTCCCGGTAATCCGTATTTGGC (site CGATGTGCTGC)"
discrete_label = "Criterion met"

[[record]]
sequence_record = "AGGAATCCATGGACCGGTTTTCCCGGTAATCCGTATTTGTT (site GGGAATCCTAA)"
discrete_label = "Criterion not met"

[[record]]
sequence_record = "CGATTATCATGGACCGGTTTTCCCGGTAATCCGTATTTGCT (site CGATCATCTAG)"
discrete_label = "Criterion not met"


---

# Assay info: recombinant UMI read abundance after kanamycin selection (control-corrected) (log10(CPM+1)); higher = more efficient recombination; extreme values may be limits of the assay; sequences stand for … in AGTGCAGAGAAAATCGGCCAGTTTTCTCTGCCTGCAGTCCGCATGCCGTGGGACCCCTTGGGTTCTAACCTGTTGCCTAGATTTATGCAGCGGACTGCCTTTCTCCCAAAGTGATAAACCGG…AGGTTGGTTTCACT; site = the 11-nt donor
Measured parameter: recombinant UMI read abundance (log10)

[[record]]
sequence_record = "CCTAATACATGGACCGGTTTTCCCGGTAATCCGTATTTGGT (site CCTAATACTTC)"
result_value = 0

[[record]]
sequence_record = "TGCACCACATGGACCGGTTTTCCCGGTAATCCGTATTTGCT (site TGCACCACTAG)"
result_value = 1.3

[[record]]
sequence_record = "GAATGGCCATGGACCGGTTTTCCCGGTAATCCGTATTTGCA (site GACTGGCCTTG)"
result_value = 0.0119

[[record]]
sequence_record = "CCAGGACCATGGACCGGTTTTCCCGGTAATCCGTATTTGGG (site CTAGGACCTCC)"
result_value = 0.00678

[[record]]
sequence_record = "CAAGAGCCATGGACCGGTTTTCCCGGTAATCCGTATTTGTG (site CAAGGGCCTCA)"
result_value = 0.55

[[record]]
sequence_record = "GCCACGCCATGGACCGGTTTTCCCGGTAATCCGTATTTGAA (site GCCACGCCTTA)"
result_value = 0.00688

[[record]]
sequence_record = "CGGTAGACATGGACCGGTTTTCCCGGTAATCCGTATTTGAG (site CGATAGACTCT)"
result_value = 2.01

[[record]]
sequence_record = "GATTATCCATGGACCGGTTTTCCCGGTAATCCGTATTTGGT (site GATTATCCTAA)"
result_value = 0.017

[[record]]
sequence_record = "AATTTGTCATGGACCGGTTTTCCCGGTAATCCGTATTTGAC (site AATGTGTCTGT)"
result_value = 0


---

# Assay info: recombinant UMI read abundance after kanamycin selection (control-corrected) (log10(CPM+1)); higher = more efficient recombination; extreme values may be limits of the assay; sequences stand for … in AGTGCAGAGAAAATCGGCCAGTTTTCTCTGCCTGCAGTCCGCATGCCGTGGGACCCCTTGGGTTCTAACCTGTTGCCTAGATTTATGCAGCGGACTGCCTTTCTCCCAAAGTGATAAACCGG…AGGTTGGTTTCACT; site = the 11-nt donor
Measured parameter: recombinant UMI read abundance (log10)

[[record]]
sequence_record = "ACATCTACATGGACCGGTTTTCCCGGTAATCCGTATTTGCG (site ACATCTACTCA)"
result_value = 0.195

[[record]]
sequence_record = "AGGATTACATGGACCGGTTTTCCCGGTAATCCGTATTTGAC (site AGGAGTACTGT)"
result_value = 0

[[record]]
sequence_record = "CGAAAGGCATGGACCGGTTTTCCCGGTAATCCGTATTTGCT (site TGAAAGGCTAG)"
result_value = 0

[[record]]
sequence_record = "CGACCATCATGGACCGGTTTTCCCGGTAATCCGTATTTGGT (site CGACCATCTAC)"
result_value = 0.825

[[record]]
sequence_record = "TAATGAGCATGGACCGGTTTTCCCGGTAATCCGTATTTGGG (site TAATGTGCTCC)"
result_value = 0

[[record]]
sequence_record = "CTCGCGGCATGGACCGGTTTTCCCGGTAATCCGTATTTGCC (site CTCGCGGCTGG)"
result_value = 0

[[record]]
sequence_record = "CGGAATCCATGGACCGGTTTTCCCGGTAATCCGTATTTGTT (site CGGAATCCTGT)"
result_value = 0

[[record]]
sequence_record = "TGTACTACATGGACCGGTTTTCCCGGTAATCCGTATTTGGT (site TGTACTACTAC)"
result_value = 0.00344

[[record]]
sequence_record = "TCCTATTCATGGACCGGTTTTCCCGGTAATCCGTATTTGCC (site TCCGATTCTGG)"
result_value = 0


---

# Assay info: recombinant barcode read abundance after kanamycin selection (control-corrected) (log10(CPM+1)); higher = more efficient recombination; sequences stand for … in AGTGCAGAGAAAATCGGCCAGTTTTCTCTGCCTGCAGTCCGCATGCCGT…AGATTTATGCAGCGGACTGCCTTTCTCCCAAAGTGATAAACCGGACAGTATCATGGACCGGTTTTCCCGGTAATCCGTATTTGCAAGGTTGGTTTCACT; site = the 11-nt target
Some sequences, each annotated with its measured recombinant barcode read abundance (log10).
Measured parameter: recombinant barcode read abundance (log10)

[[record]]
sequence_record = "TACTTCCCTTGGGTTCTAACCTGTTGCGT (site TACTTCTCTAG)"
result_value = 0.0128

[[record]]
sequence_record = "TGATAGCCTTGGGTTCTAACCTGTTGCCT (site CGATAGCCTAG)"
result_value = 0.0141

[[record]]
sequence_record = "TAAGGTACTTGGGTTCTAACCTGTTGCTT (site TAAAGTACTAA)"
result_value = 0.0963

[[record]]
sequence_record = "ACGCATCCTTGGGTTCTAACCTGTTGCCT (site ATGCATCCTAG)"
result_value = 0.11

[[record]]
sequence_record = "GCAATGTCTTGGGTTCTAACCTGTTGCCT (site GGAATGTCTAG)"
result_value = 0.239

[[record]]
sequence_record = "TAGGACACTTGGGTTCTAACCTGTTGCGT (site TAGGAAACTAC)"
result_value = 0.378

[[record]]
sequence_record = "CTATAGACTTGGGTTCTAACCTGTTGCCT (site CTATCGACTAG)"
result_value = 0.163

[[record]]
sequence_record = "TGATCTCCTTGGGTTCTAACCTGTTGCAT (site TGATCTCCTAA)"
result_value = 0.186

[[record]]
sequence_record = "CAGGTACCTTGGGTTCTAACCTGTTGCAG (site CAGGTACCTAT)"
result_value = 0.368

[[record]]
sequence_record = "CGAATCCCTTGGGTTCTAACCTGTTGCCT (site CGAATCGCTAG)"
result_value = 0.0332

